- Test system: HTC-C3 (Thyroid Gland Carcinoma)
- ASSAY: combination Emax (second highest fraction inhibited in the dose matrix, 72 h); higher = more inhibition; extreme values may be limits of the assay
EXPERIMENTAL_ENDPOINT: combination Emax
Numbers only.

Answered examples (3):
- COMPOUND: "NC1(C(=O)N[C@@H](CCO)c2ccc(Cl)cc2)CCN(c2ncnc3[nH]ccc23)CC1 [Capivasertib] + CCN(CCO)CCCOc1ccc2c(Nc3cc(CC(=O)Nc4cccc(F)c4)[nH]n3)ncnc2c1 [AZD2811] (first compound max 10 µM, 7x7, partner max 1 µM)"
  RESULT_VALUE: 0.405
- COMPOUND: "CN(C)CCCOc1ccc(-c2ccc3ncc4c(c3c2)n(C2CCOCC2)c(=O)n4C)cn1 [AZD0156] + CCN(CCO)CCCOc1ccc2c(Nc3cc(CC(=O)Nc4cccc(F)c4)[nH]n3)ncnc2c1 [AZD2811] (first compound max 1 µM, 7x7, partner max 1 µM)"
  RESULT_VALUE: 0.0862
- COMPOUND: "Cc1c2c(nn1C)CSCc1cc(n(C)n1)CSc1cc(c3ccccc3c1)OCCCc1c(C(=O)O)n(C)c3c-2c(Cl)ccc13 [AZD5991] + CN(C)CCCOc1ccc(-c2ccc3ncc4c(c3c2)n(C2CCOCC2)c(=O)n4C)cn1 [AZD0156] (first compound max 1 µM, 7x7, partner max 1 µM)"
  RESULT_VALUE: 0.179

So the reported combination Emax for CCc1c2c(nc3ccc(O)cc13)-c1cc3c(c(=O)n1C2)COC(=O)[C@]3(O)CC [SN-38] + O=C(c1cc(Cc2n[nH]c(=O)c3ccccc23)ccc1F)N1CCN(C(=O)C2CC2)CC1 [Olaparib] (first compound max 0.3 µM, 7x7, partner max 10 µM) , on HTC-C3 (Thyroid Gland Carcinoma), turned out to be 0.686

###

- Tested on: AsPC-1 (Pancreatic Carcinoma)
- ASSAY: combination Emax (second highest fraction inhibited in the dose matrix, 72 h); higher = more inhibition; extreme values may be limits of the assay
EXPERIMENTAL_ENDPOINT: combination Emax
One number for each entry.

- COMPOUND: "CC1(C)CCC(CN2CCN(c3ccc(C(=O)NS(=O)(=O)c4ccc(NCC5CCOCC5)c([N+](=O)[O-])c4)c(Oc4cnc5[nH]ccc5c4)c3)CC2)=C(c2ccc(Cl)cc2)C1 [Venetoclax] + C1CN(CCC1(C(=O)N[C@@H](CCO)C2=CC=C(C=C2)Cl)N)C3=NC=NC4=C3C=CN4 [Capivasertib] (first compound max 1 µM, 7x7, partner max 3 µM)"
  combination Emax: 0.207
- COMPOUND: "CN(C)CCCOc1ccc(-c2ccc3ncc4c(c3c2)n(C2CCOCC2)c(=O)n4C)cn1 [AZD0156] + O=C(c1cc(Cc2n[nH]c(=O)c3ccccc23)ccc1F)N1CCN(C(=O)C2CC2)CC1 [Olaparib] (first compound max 3 µM, partner max 3 µM)"
  combination Emax: 0.297

Turning now to a further compound:
The reported AsPC-1 (Pancreatic Carcinoma) combination Emax of Cc1c2c(nn1C)CSCc1cc(n(C)n1)CSc1cc(c3ccccc3c1)OCCCc1c(C(=O)O)n(C)c3c-2c(Cl)ccc13 [AZD5991] + C[C@@H]1COCCN1C2=NC(=NC(=C2)C3(CC3)[S@](=N)(=O)C)C4=C5C=CNC5=NC=C4 [AZD6738] (first compound max 1 µM, 7x7, partner max 10 µM) is 0.292

These entries and their values trace back to the supplement of paper PMC11061612.
